# Test system: SN12C renal
# procedure summary: NCI tumour cell line growth inhibition, 48 h
assay metric: TGI

[[record]]
compound = "CC1(C#N)CC(C)(C)C(/C=C2/CC(C)(C)C(/C=C3/OC(=N)CC3(C)C)=N2)=N1 (stereo not given)"
assay_result = "95.9 µM"

[[record]]
compound = "CC(=O)c1c(CBr)n([O-])c2ccccc2[n+]1=O"
assay_result = "27.3 µM"

[[record]]
compound = "O=C(O)c1cc(O)c2c(c1)C(C1c3cc(C(=O)O)cc(O)c3C(=O)c3c(OC4OC(CO)C(O)C(O)C4O)cccc31)c1cccc(OC3OC(CO)C(O)C(O)C3O)c1C2=O (stereo not given)"
assay_result = "> 100 µM"

[[record]]
compound = "O=C(CCC/C(CC(=O)c1ccc(Br)cc1)=N\\O)Nc1ccccc1"
assay_result = "> 100 µM"


Quick request: TGI for each listed item, please.
1. CC1(C)c2ccccc2C(=O)C12CCC(=O)CC2
2. c1cc(-c2ncc(-c3ccc4c(c3)CCCO4)o2)ccn1
3. CC12CCC(C(=O)OC1=O)C2(C)C (stereo not given)
4. COc1cc(/C=C2\C(=O)Nc3ccc(F)cc32)cc(OC)c1OC

Result string:
["> 100 µM", "> 100 µM", "> 100 µM", "> 100 µM"]

Quick request: TGI for each listed item, please.
1. Cc1c[n+](Cc2ccc3ccccc3c2)cn1Cc1ccc2ccccc2c1
2. CC(=O)Oc1ccccc1-c1cc2ccccc2oc1=O

Result string:
1: 3.33 µM; 2: > 100 µM

----------
Entries with reported GI50 on DU-145 prostate

Worked examples, 2 compounds total:
[[record]]
compound = "CC(=O)Oc1ccccc1C(=O)N=C1[Se]CCN1C(=O)c1ccccc1OC(C)=O"
target_desc = "DU-145 prostate"
assay_metric = "GI50"
assay_result = "0.61 µM"

[[record]]
compound = "NC(=O)C(=CNc1nc(-c2ccc(Cl)c(Cl)c2)cs1)C(N)=O"
target_desc = "DU-145 prostate"
assay_metric = "GI50"
assay_result = "> 100 µM"


Quick request: GI50 for each listed item, please.
1. COc1ccc(-c2cc(-c3cccn3C)c(C#N)c(N)n2)cc1OC
2. Nc1nc(Br)nc2c1ncn2C1CC(O)C(CO)O1 (centres undefined)

Result string:
1: 91.6 µM; 2: 44.3 µM

----------
# System: HS 578T breast
# procedure summary: NCI tumour cell line growth inhibition, 48 h; in the data active means GI50 below about 0.43 µM; inactive means the rest
Your reply should match one of these outcome classes. active, inactive

[[record]]
compound_structure_string = "CC(=O)c1c(CBr)n([O-])c2ccccc2[n+]1=O"
target_desc = "HS 578T breast"
category = "inactive"

[[record]]
compound_structure_string = "Cc1ccc(Nc2nc(N)c(C(=O)c3ccc(C#N)cc3)s2)cc1"
target_desc = "HS 578T breast"
category = "inactive"

[[record]]
compound_structure_string = "Nc1nc(Nc2ccccc2)c2ncn(Cc3cc4c(cc3Br)OCO4)c2n1"
target_desc = "HS 578T breast"
category = "active"


Query string: # lookup: test call for "Cc1[nH][nH]c(=O)c1C=Nc1ccc(-c2nc3ccccc3[nH]2)cc1"
Result string: inactive

Query string: # lookup: test call for "CCN(CC)CCNCC(=O)Oc1ccc(/C=C/C(=O)CC(=O)/C=C/c2ccc(OC(=O)CNCCN(CC)CC)c(OC)c2)cc1OC"
Result string: inactive

Query string: # lookup: test call for "COc1ccc(-n2cc(-c3ccc(Cl)c(Cl)c3)nc2SCc2cccc(C#N)c2)cc1"
Result string: inactive

Query string: # lookup: test call for "Cc1cn2c(/C=C3/C(=O)Nc4ccccc43)c(-c3ccc(Cl)cc3)nc2s1"
Result string: inactive

Query string: # lookup: test call for "COc1ccc(-c2cc(-c3cccn3C)c(C#N)c(N)n2)cc1OC"
Result string: inactive

Query string: # lookup: test call for "O=C(Nc1cccc(Cl)c1Cl)c1cccc(NC2=C(Cl)C(=O)N(Cc3ccccc3)C2=O)c1"
Result string: inactive

Query string: # lookup: test call for "O=C1/C(=C\c2cccn2Cc2ccccc2)c2ccccc2N1c1c(Cl)cccc1Cl"
Result string: inactive

Query string: # lookup: test call for "Cc1c[n+](Cc2ccc3ccccc3c2)cn1Cc1ccc2ccccc2c1"
Result string: inactive

Cited source for all entries: PubChem BioAssay (NCI)
